method: Stability test (high temperature, high humidity and light tests)
Type: physicochemical
conditionSummary: Light (4500±500 lx, UV light≥0.7 w/m^2), 10 days
Attribute: Purity (%)
endpointName: Purity (%)

>>> numericreadout("COC(=O)C1=C(CN2CCN3C(=O)N(c4ccc(CCC(=O)O)cc4F)C[C@@H]3C2)N=C(c2nccs2)N[C@H]1c1ccc(F)cc1Cl.Cl")
99.26
>>> numericreadout("Br.COC(=O)C1=C(CN2CCN3C(=O)N(c4ccc(CCC(=O)O)cc4F)C[C@@H]3C2)N=C(c2nccs2)N[C@H]1c1ccc(F)cc1Cl")
98.88
>>> numericreadout("COC(=O)C1=C(CN2CCN3C(=O)N(c4ccc(CCC(=O)O)cc4F)C[C@@H]3C2)NC(c2nccs2)=N[C@H]1c1ccc(F)cc1Cl")
98.20
>>> numericreadout("COC(=O)C1=C(CN2CCN3C(=O)N(c4ccc(CCC(=O)O)cc4F)C[C@@H]3C2)N=C(c2nccs2)N[C@H]1c1ccc(F)cc1Cl.O=S(=O)(O)O [Sulfate crystal form A of the compound having Formula (Ia)]")
99.15
>>> numericreadout("COC(=O)C1=C(CN2CCN3C(=O)N(c4ccc(CCC(=O)O)cc4F)C[C@@H]3C2)N=C(c2nccs2)N[C@H]1c1ccc(F)cc1Cl.O=S(=O)(O)O [Sulfate crystal form B of the compound having Formula (Ia)]")
98.91
